experimental protocol: Rodent Pharmacokinetics - Rat PK
Type: in vivo, male Sprague-Dawley rats
test settings: male, Sprague-Dawley, plasma, 10 mg/kg, PO
measured endpoint: AUC (µM·h)

CC(C)Oc1cncc(Nc2c(-c3ccc(-c4ccc(C5(C(=O)O)CC5)cc4)cn3)cnn2C)n1.Cl	70.9
CC(C)c1cncc(Nc2c(-c3ccc(-c4ccc(C5(C(=O)O)CC5)cc4)cn3)cnn2C)n1	80.1

---

target system: human LPAR3 (Homo sapiens (Human), UniProt Q9UBY5)
Sequence (Q9UBY5 whole entry): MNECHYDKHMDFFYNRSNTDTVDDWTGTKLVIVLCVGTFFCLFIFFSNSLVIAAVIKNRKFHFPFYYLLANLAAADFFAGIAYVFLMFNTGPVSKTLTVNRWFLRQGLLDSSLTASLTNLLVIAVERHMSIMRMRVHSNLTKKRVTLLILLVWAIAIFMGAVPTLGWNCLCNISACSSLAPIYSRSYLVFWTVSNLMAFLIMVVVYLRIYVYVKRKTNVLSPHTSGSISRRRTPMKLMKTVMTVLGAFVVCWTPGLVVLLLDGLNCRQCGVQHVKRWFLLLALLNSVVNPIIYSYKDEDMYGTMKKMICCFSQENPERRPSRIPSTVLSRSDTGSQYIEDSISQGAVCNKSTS
experimental protocol: LPAR3 Calcium Flux Assay
test settings: U2OS cells overexpressing human LPAR3, LPA-stimulated calcium, FLIPR
pIC50: −log10 of the molar value. Structures can show the parent of a compound that is named as a salt.
measured endpoint: pIC50

CC(C)Oc1cncc(Nc2c(-c3ccc(-c4ccc(C5(C(=O)O)CC5)cc4)cn3)cnn2C)n1.Cl [Example 20, Hydrochloride]	6.47
CC(C)c1cncc(Nc2c(-c3cnc(-c4ccc(C5(C(=O)O)CC5)cc4)cn3)cnn2C)n1 [Example 19, Hydrochloride]	5.62
CC(C)c1cncc(Nc2c(-c3ccc(-c4ccc(C5(C(=O)O)CC5)cc4)cn3)cnn2C)n1 [Example 27]	5.70
Cn1ncc(-c2ccc(-c3ccc(C4(C(=O)O)CC4)cc3)cn2)c1Nc1cncc(C(C)(F)F)n1 [Example 12, Hydrochloride]	5.37
Cc1cc(-c2ccc(-c3cnn(C)c3Nc3cncc(OC(C)C)n3)nc2)ccc1C1(C(=O)O)CC1 [Example 7, Hydrochloride]	5.98

(I) Cn1ncc(-c2ccc(-c3ccc(C4(C(=O)O)CC4)cc3)cn2)c1Nc1cncc(OC2CC(F)(F)C2)n1 [Example 5]
(II) Cn1ncc(-c2ccc(-c3ccc(C4(C(=O)O)CC4)cc3)cn2)c1Nc1cncc(C(C)(C)F)n1 [Example 13, Hydrochloride]
(III) CC(C)c1cncc(Nc2c(-c3ccc(-c4ccc(C5(C(=O)O)CC5)cc4C#N)cn3)cnn2C)n1 [Example 16, Hydrochloride]
(IV) CC(C)Oc1cncc(Nc2c(-c3ncc(-c4ccc(C5(C(=O)O)CC5)cc4)cc3F)cnn2C)n1 [Example 11, Hydrochloride]
Sort entries by pIC50 from minimum to maximum value. A complete answer lists every label in the requested sequence.
III, II, IV, I
(III: 5.34, II: 6.09, IV: 6.31, I: 7.30)

---

target system: LPAR1 (Homo sapiens (Human))
pKi: −log10 of the molar value. Where a name gives a salt, the structure may show the parent alone.
measured endpoint: pKi

CC(C)c1cncc(Nc2c(-c3ccc(-c4ccc(C5(C(=O)O)CC5)cc4CC#N)cn3)cnn2C)n1 [Example 15, Hydrochloride]	7.02

(I) CC(C)Oc1cncc(Nc2c(-c3ncc(-c4ccc(C5(C(=O)O)CC5)cc4)cc3F)cnn2C)n1 [Example 11, Hydrochloride]
(II) COC(C)(C)c1cncc(Nc2c(-c3ccc(-c4ccc(C5(C(=O)O)CC5)cc4)cn3)cnn2C)n1 [Example 6, Hydrochloride]
(III) Cn1ncc(-c2ccc(-c3ccc(C4(C(=O)O)CC4)cc3)cn2)c1Nc1cncc(OC2CC2)n1
# desc sort on pKi across 3 compounds Show the ranking through the labels, in the order asked for.
III, I, II

---

target system: LPAR1 (Homo sapiens (Human))
experimental protocol: LPAR1 Cytokine Release Assay (IL-6, MG63 cells)
Assay type: cell-based
test settings: LPA-stimulated IL-6 levels, 24 hours, ELISA
Sequence (Q92633 whole entry): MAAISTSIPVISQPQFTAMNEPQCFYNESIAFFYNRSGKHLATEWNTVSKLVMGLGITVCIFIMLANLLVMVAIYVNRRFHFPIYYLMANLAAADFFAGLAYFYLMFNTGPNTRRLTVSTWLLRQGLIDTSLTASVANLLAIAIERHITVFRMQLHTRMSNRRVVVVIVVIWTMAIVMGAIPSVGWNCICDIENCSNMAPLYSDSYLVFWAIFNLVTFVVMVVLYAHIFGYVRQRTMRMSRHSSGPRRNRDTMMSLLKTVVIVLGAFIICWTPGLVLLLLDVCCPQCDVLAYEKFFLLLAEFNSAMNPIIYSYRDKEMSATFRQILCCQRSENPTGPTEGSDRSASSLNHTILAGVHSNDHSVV
pIC50: −log10 of the molar value. Where a name gives a salt, the structure may show the parent alone.
measured endpoint: pIC50

CC(C)Cc1cncc(Nc2c(-c3ccc(-c4ccc(C5(C(=O)O)CC5)cc4)cc3)cnn2C)n1 [Example 17]	8.24
Cc1cc(C2(C(=O)O)CC2)ccc1-c1ccc(-c2cnn(C)c2Nc2cncc(C(C)C)n2)nc1 [Example 22, Hydrochloride]	7.95
CC(C)c1cncc(Nc2c(-c3ncc(-c4ccc(C5(C(=O)O)CC5)cc4)cn3)cnn2C)n1 [Example 18]	8.18
CC(C)c1cncc(Nc2c(-c3ccc(-c4ccc(C5(C(=O)O)CC5)cc4)cc3)cnn2C)n1 [Example 26]	8.32

(A) Cn1ncc(-c2ccc(-c3ccc(C4(C(=O)O)CC4)cc3)cn2)c1Nc1cncc(C(F)(F)F)n1 [Example 21]
(B) CC(C)Oc1cncc(Nc2c(-c3ccc(-c4ccc(C5(C(=O)O)CC5)cc4)cn3)cnn2C)n1.Cl [Example 20, Hydrochloride]
(C) CC(C)c1cncc(Nc2c(-c3ccc(-c4ccc(C5(C(=O)O)CC5)nc4)cn3)cnn2C)n1 [Example 23]
Sequence the entries by pIC50, beginning with the highest number. Would you mind listing the labels in the order requested?
B, A, C

---

experimental protocol: Rodent Pharmacokinetics - Mouse PK
Assay type: in vivo, C57 mice
test settings: C57, plasma, intravenous, read-out: Vdss
Method: The pharmacokinetics of compounds are determined in male Sprague-Dawley rats or C57 mice. The rats are administered a single 1 mg/kg intravenous (IV) and 10 mg/kg oral gavage (PO) dose. The vehicles are 20% Captisol w/v in 25 mM NaPO4 buffer, pH8 and 1% hydroxyethylcellulose/0.25% polysorbate 80 and 0.05% antifoam 1510-US in distilled water for the intravenous and oral dose, respectively. […] The plasma samples are analyzed by LC-MS/MS to determine compound concentrations.
measured endpoint: Vd (L/kg)

CC(C)c1cncc(Nc2c(-c3ccc(-c4ccc(C5(C(=O)O)CC5)cc4)cc3)cnn2C)n1 [Example 26]	2

(a) Cn1ncc(-c2ccc(-c3ccc(C4(C(=O)O)CC4)cc3)cn2)c1Nc1cncc(C(F)(F)F)n1 [Example 21]
(b) CC(C)c1cncc(Nc2c(-c3ccc(-c4ccc(C5(C(=O)O)CC5)cc4)cn3)cnn2C)n1 [Example 27]
Smaller Vd value? Options are a and b Answer format: the label of the selected item.
b

---

experimental protocol: Rodent Pharmacokinetics - Mouse PK
Format: in vivo, C57 mice
test settings: C57, plasma, 10 mg/kg, PO
measured endpoint: AUC (µM·h)

CC(C)c1cncc(Nc2c(-c3ccc(-c4ccc(C5(C(=O)O)CC5)cc4)cc3)cnn2C)n1	9.06

(I) CC(C)c1cncc(Nc2c(-c3ccc(-c4ccc(C5(C(=O)O)CC5)cc4)cn3)cnn2C)n1
(II) Cn1ncc(-c2ccc(-c3ccc(C4(C(=O)O)CC4)cc3)cn2)c1Nc1cncc(C(F)(F)F)n1
I'm curious, which of these has a smaller AUC number: I or II ? // respond with label for picked entry
II
(II: 16.3 µM·h, I: 38.4 µM·h)

---

target system: LPAR1 (Homo sapiens (Human), UniProt Q92633)
experimental protocol: LPAR1 Calcium Flux Assay
Assay type: cell-based
test settings: U937 cells overexpressing human LPAR1, LPA-stimulated calcium, FLIPR
pIC50: −log10 of the molar value. Counter-ions that a name gives are not always drawn.
measured endpoint: pIC50

(A) Cn1ncc(-c2ccc(-c3ccc(C4(C(=O)O)CC4)cc3)cn2)c1Nc1cncc(OC2CCC2)n1 [Example 2]
(B) CC(C)c1cncc(Nc2c(-c3ccc(-c4ccc(C5(C(=O)O)CC5)cn4)cn3)cnn2C)n1 [Example 24, Dihydrochloride]
Lower pIC50: A or B ? Mark your selection by writing its label.
B
(B: 7.32, A: 7.76)

---

experimental protocol: Rodent Pharmacokinetics - Mouse PK
Assay type: in vivo, C57 mice
test settings: C57, plasma, intravenous
measured endpoint: clearance (mL/min/kg)

CC(C)c1cncc(Nc2c(-c3ccc(-c4ccc(C5(C(=O)O)CC5)cc4)cn3)cnn2C)n1 [Example 27]	3.5

(a) Cn1ncc(-c2ccc(-c3ccc(C4(C(=O)O)CC4)cc3)cn2)c1Nc1cncc(C(F)(F)F)n1 [Example 21]
(b) CC(C)c1cncc(Nc2c(-c3ccc(-c4ccc(C5(C(=O)O)CC5)cc4)cc3)cnn2C)n1 [Example 26]
In the pair a and b , the larger recorded clearance belongs to which? Label of pick, please.
a
(a: 4.99 mL/min/kg, b: 2 mL/min/kg)

---

target system: LPAR1 (Homo sapiens (Human))
pKi: −log10 of the molar value. Where a name gives a salt, the structure may show the parent alone.
measured endpoint: pKi

Worked cases, pKi given:
Cn1ncc(-c2ccc(-c3ccc(C4(C(=O)O)CC4)cc3)cn2)c1Nc1cncc(C(C)(F)F)n1 [Example 12, Hydrochloride]	7.39
Cn1ncc(-c2ccc(-c3ccc(C4(C(=O)O)CC4)cc3)cn2)c1Nc1cncc(C(C)(C)F)n1 [Example 13, Hydrochloride]	7.55
Cn1ncc(-c2ccc(-c3ccc(C4(C(=O)O)CC4)cc3)cn2)c1Nc1cncc(OC2CC(F)(F)C2)n1 [Example 5]	7.29

(P) Cc1cc(-c2ccc(-c3cnn(C)c3Nc3cncc(OC(C)C)n3)nc2)ccc1C1(C(=O)O)CC1 [Example 7, Hydrochloride]
(Q) CC(C)Oc1cncc(Nc2c(-c3ccc(-c4ccc(C5(C(=O)O)CC5)cc4)cn3)cnn2C)n1.Cl [Example 20, Hydrochloride]
(R) CC(C)c1cncc(Nc2c(-c3ccc(-c4ccc(C5(C(=O)O)CC5)cn4)cn3)cnn2C)n1 [Example 24, Dihydrochloride]
Please put the entries in order of rising pKi. Order the labels as requested and list them.
P, R, Q
(P: 7.14, R: 7.34, Q: 7.90)
